test-name: Cell viability MTT assay
Assay type: cell-based
study-conditions: human, PC-3 prostate cancer cells; PC-3, MTT; read-out: IC50 (cytotoxicity)
metric: IC50

IC50 measured on Cn1nc(-c2ccccc2)c2cnnc(NCc3ccccc3)c21 [Compound 10b] = > 10 µM

###

Listed next: entries and their corresponding pEC50 of NECA in presence of compound.
test-system: A2AR (Homo sapiens)
Construct: expressed in transfected cells
Sequence (P29274 whole entry): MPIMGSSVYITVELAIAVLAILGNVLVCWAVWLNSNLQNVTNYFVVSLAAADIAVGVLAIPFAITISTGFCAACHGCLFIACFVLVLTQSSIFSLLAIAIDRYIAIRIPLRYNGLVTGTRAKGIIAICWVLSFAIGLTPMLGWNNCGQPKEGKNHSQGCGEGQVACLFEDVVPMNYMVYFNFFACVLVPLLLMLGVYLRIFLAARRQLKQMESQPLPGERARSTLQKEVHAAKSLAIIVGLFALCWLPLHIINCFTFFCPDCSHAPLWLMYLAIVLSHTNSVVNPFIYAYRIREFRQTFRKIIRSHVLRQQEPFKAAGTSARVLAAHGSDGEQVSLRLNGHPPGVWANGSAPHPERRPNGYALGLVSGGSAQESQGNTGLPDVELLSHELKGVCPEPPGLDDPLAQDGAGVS
test-name: cAMP accumulation assay with NECA
Format: cell-based
study-conditions: A2AR (10 μM), no forskolin, mean ± SEM

# count of solved cases: 4
Cn1nc2c(N3CCOCC3)nncc2c1-c1ccccc1 [Compound 15c] | 5.84 ± 0.46
CC(C)c1c2cnnc(NCc3ccccc3)c2nn1C [Compound 15a] | 6.17 ± 0.47
Cn1nc(-c2ccccc2)c2cnnc(N3CCOCC3)c21 [Compound 10c] | 5.60 ± 0.52
Cn1nc2c(NCc3ccccc3)nncc2c1-c1ccccc1 [Compound 15b] | 5.71 ± 0.46

Next compound, please.
Data point: CC(C)c1nn(C)c2c(NCc3ccccc3)nncc12 [Compound 10a] ; pEC50 of NECA in presence of compound = 5.64 ± 0.38
